Reference source: patent EP4585599A1

Target: helicase domain of the Pol θ protein (Homo sapiens, UniProt O75417)
Construct: The helicase domain of the Pol θ protein was purified from insect protein expression system; made in house; host or cells: insect protein expression system
Sequence (O75417 102-554 limits assumed): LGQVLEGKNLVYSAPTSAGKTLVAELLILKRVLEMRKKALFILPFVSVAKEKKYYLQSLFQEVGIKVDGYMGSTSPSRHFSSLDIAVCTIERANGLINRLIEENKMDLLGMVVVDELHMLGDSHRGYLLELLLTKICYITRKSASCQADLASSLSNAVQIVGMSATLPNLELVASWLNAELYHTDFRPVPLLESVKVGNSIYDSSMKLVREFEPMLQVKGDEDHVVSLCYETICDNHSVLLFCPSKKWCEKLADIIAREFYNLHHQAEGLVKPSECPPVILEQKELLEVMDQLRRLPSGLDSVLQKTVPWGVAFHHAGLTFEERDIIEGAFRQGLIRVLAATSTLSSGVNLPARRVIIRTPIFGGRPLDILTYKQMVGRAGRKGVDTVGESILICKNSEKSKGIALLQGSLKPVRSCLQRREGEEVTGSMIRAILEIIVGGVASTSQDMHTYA
Assay: Biochemical Activity Assay (ADP Glo Assay) of Pol θ inhibitor, ATPase activity
Details: ADP-Glo assay, ATPase activity of Pol θ helicase domain, ssDNA substrate; read-out: Biochemical assay IC50
Parameter: IC50. Scope: all listed entries.
measured_attribute: IC50

{"columns": ["compound", "measured_attribute", "readout_value"],
 "data": [
  ["COc1cnc(Cl)cc1-c1cc(C)ncc1C(=O)Nc1nc2ncc(C3COCCO3)cc2s1 (stereo not drawn) [Example 182]", "IC50", "2.08 nM"],
  ["COc1cnc(Cl)cc1-c1cnccc1C(=O)Nc1nc2ccc([C@H]3CC[C@H](O)CC3)nc2s1 [Example 34]", "IC50", "48.9 nM"],
  ["COc1cnc(Cl)cc1-c1cc(C)ncc1C(=O)Nc1nc2cnc(-c3ncco3)cc2s1 [Example 205]", "IC50", "5.24 nM"],
  ["COc1cccc(F)c1-c1cc(C)ncc1C(=O)Nc1nc2ccc(C3=CCC(O)CC3)nc2s1 (stereo not drawn) [Example 5]", "IC50", "81.5 nM"],
  ["COc1cnc(Cl)c(F)c1-c1cc(C)ncc1C(=O)Nc1nc2ccc(N3CCC(O)CC3)nc2s1 [Example 53]", "IC50", "1.96 nM"],
  ["[2H]C([2H])([2H])Oc1cnc(Cl)cc1-c1cc(C([2H])([2H])[2H])ncc1C(=O)Nc1nc2cnc(-c3c(C)nnn3C)c(F)c2s1 [Example 231]", "IC50", "3.08 nM"],
  ["COc1cnc(Cl)cc1-c1cc(C)ncc1C(=O)Nc1nc2cnc(-c3c(C)nnn3C)c(C#N)c2s1 [Example 228]", "IC50", "111 nM"],
  ["COc1cnc(Cl)cc1-c1cc(C)ncc1C(=O)Nc1nc2ncc(N3CCC(NC(=O)C4(C)CC4)CC3)cc2s1 [Example 74]", "IC50", "6.44 nM"],
  ["COc1cnc(Cl)cc1-c1cc(C)ncc1C(=O)Nc1nc2c(CO)cc(-c3c(C)cnn3C)cc2s1 [Example 170]", "IC50", "7.13 nM"],
  ["COc1cnc(C(F)F)cc1-c1cc(C)ncc1C(=O)Nc1nc2cnc(N3CCCCC3=O)nc2s1 [Example 201]", "IC50", "5.24 nM"],
  ["COc1cnc(Cl)cc1-c1cc(C)ncc1C(=O)Nc1nc2ncc(N3CC[C@H](O)[C@H](F)C3)cc2s1 [Example 100]", "IC50", "2.95 nM"],
  ["COc1cnc(Cl)cc1-c1cc(C)ncc1C(=O)Nc1nc2ncc(C3=CCOCC3)cc2s1 [Example 14]", "IC50", "2.74 nM"],
  ["COc1cnc(C(F)F)cc1-c1cc(C)ncc1C(=O)Nc1nc2cnc(N3CC4(CC(O)C4)C3)nc2s1 [Example 199]", "IC50", "7.82 nM"],
  ["COc1cnc(C(F)F)cc1-c1cc(C)ncc1C(=O)Nc1nc2cnc(-c3c(F)cnn3C)cc2s1 [Example 173]", "IC50", "2.93 nM"],
  ["Cc1cc(-c2c(F)cccc2OC(F)F)c(C(=O)Nc2nc3ccc(C4=CCC(O)CC4)nc3s2)cn1 (stereo not drawn) [Example 7]", "IC50", "26.4 nM"]
]}
